Source listed as patent US20220072165A1.

Tested System: norepinephrine transporter (NET) (Homo sapiens, UniProt P23975)
Construct: human neuroblastoma cells SK-N-SH, which are known to express the transporter NET in large quantity
Sequence (P23975 whole entry): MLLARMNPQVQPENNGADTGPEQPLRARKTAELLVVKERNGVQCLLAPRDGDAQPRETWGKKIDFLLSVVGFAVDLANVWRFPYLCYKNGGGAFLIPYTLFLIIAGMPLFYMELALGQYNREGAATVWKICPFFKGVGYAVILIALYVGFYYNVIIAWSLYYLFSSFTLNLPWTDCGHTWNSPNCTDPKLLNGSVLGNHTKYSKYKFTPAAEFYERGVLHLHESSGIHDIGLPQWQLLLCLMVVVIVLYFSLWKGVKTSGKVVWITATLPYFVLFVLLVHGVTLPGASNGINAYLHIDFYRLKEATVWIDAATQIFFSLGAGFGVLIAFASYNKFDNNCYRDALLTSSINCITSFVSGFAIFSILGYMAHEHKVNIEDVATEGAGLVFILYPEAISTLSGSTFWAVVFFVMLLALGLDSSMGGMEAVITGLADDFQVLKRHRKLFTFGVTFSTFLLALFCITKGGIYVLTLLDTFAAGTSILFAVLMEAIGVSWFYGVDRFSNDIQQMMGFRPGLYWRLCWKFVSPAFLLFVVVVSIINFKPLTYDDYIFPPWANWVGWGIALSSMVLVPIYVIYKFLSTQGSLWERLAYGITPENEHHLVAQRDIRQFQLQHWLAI
Assay Details: competition with ^3H-NE for uptake by SK-N-SH cells
Settings: 50 nM ^3H-NE, 1 hour incubation, 37° C., read-out: inhibition of the ^3H-NE uptake IC50
From the text: The ability of the ^89Y-DOTA-BG chelate (1a, MC4324) (non-radioactive analogue of the compound of Formula II, 1 or MC4324) to act as substrate of NET has been evaluated in competition experiments with the tritiated endogenous substrate ^3H-NE for the uptake by the human neuroblastoma cells SK-N-SH, which are known to express the transporter NET in large quantity. […] The background bond has been determined in parallel in a fourth well containing a 400 times molar excess of non-marked ^1H-NE (“cold”). […]
pIC50: −log10 of the molar value.
Measured Attribute: pIC50

> print(dat)
                               query.smiles  recorded.result
1  N=C(N)NCc1cccc(C(=O)NCCNC(=O)CN2CCN(CC(=O)[O-])CCN(CC(=O)[O-])CCN(CC(=O)[O-])CC2)c1.[89Y+3]            ~5.00
